Assay summary: Repeat once-weekly IV dose toxicokinetics in dogs
Assay type: in vivo
Condition details: male, dog, in vivo, iv, 9.3 mg/kg, dogs M, 9.3 mg/kg once-weekly IV, Day 13
Measured property: AUC(0-inf) (ng·h/mL)
Numbers only here, please. The scale is ng·h/mL.

# AUC(0-inf) lookup, item CC1(C)C(=CC=C2CCCC(C=CC3=[N+](CCCCS(=O)(=O)[O-])c4ccc(S(=O)(=O)O)cc4C3(C)C)=C2Oc2ccc(CC(NC(=O)c3ccc(NCc4cnc5nc(N)[nH]c(=O)c5n4)cc3)C(=O)O)cc2)N(CCCCS(=O)(=O)O)c2ccc(S(=O)(=O)O)cc21 (stereo not shown) [pafolacianine]
85100

* * *

Assay summary: Repeat once-weekly IV dose toxicokinetics in rats
Assay type: in vivo
Condition details: male, rat, in vivo, iv, 30.8 mg/kg, rats M, 30.8 mg/kg once-weekly IV, Day 0
Measured property: clearance (mL/min/kg)
Report the figure in mL/min/kg without appending any unit label.

Which measured clearance value corresponds to CC1(C)C(=CC=C2CCCC(C=CC3=[N+](CCCCS(=O)(=O)[O-])c4ccc(S(=O)(=O)O)cc4C3(C)C)=C2Oc2ccc(CC(NC(=O)c3ccc(NCc4cnc5nc(N)[nH]c(=O)c5n4)cc3)C(=O)O)cc2)N(CCCCS(=O)(=O)O)c2ccc(S(=O)(=O)O)cc21 (stereo not shown) [pafolacianine] ?
2.18

* * *

Assay summary: Repeat once-weekly IV dose toxicokinetics in dogs
Format: in vivo
Condition details: male, dog, in vivo, iv, 9.3 mg/kg, dogs M, 9.3 mg/kg once-weekly IV, Day 13
Measured property: AUC(0-t) (ng·h/mL)
Write the value in ng·h/mL as a bare number.

// AUC(0-t) lookup, key: CC1(C)C(=CC=C2CCCC(C=CC3=[N+](CCCCS(=O)(=O)[O-])c4ccc(S(=O)(=O)O)cc4C3(C)C)=C2Oc2ccc(CC(NC(=O)c3ccc(NCc4cnc5nc(N)[nH]c(=O)c5n4)cc3)C(=O)O)cc2)N(CCCCS(=O)(=O)O)c2ccc(S(=O)(=O)O)cc21 (stereo not shown) [pafolacianine]
65400

* * *

Assay summary: Repeat once-weekly IV dose toxicokinetics in dogs
Assay type: in vivo
Condition details: male, dog, in vivo, iv, 0.9 mg/kg, dogs M, 0.9 mg/kg once-weekly IV, Day 0
Measured property: C0 (ng/mL)
Your answer should be a plain number; it is taken to be in ng/mL.

Using the record for CC1(C)C(=CC=C2CCCC(C=CC3=[N+](CCCCS(=O)(=O)[O-])c4ccc(S(=O)(=O)O)cc4C3(C)C)=C2Oc2ccc(CC(NC(=O)c3ccc(NCc4cnc5nc(N)[nH]c(=O)c5n4)cc3)C(=O)O)cc2)N(CCCCS(=O)(=O)O)c2ccc(S(=O)(=O)O)cc21 (stereo not shown) [pafolacianine] , report its C0.
4660

* * *

Assay summary: Repeat once-weekly IV dose toxicokinetics in dogs
Assay type: in vivo
Condition details: male, dog, in vivo, iv, 13.9 mg/kg, dogs M, 13.9 mg/kg once-weekly IV, Day 13; read-out: Vss
Measured property: Vd (L/kg)
Give the value in L/kg but do not write L/kg after it.

Dear colleague, I am looking for the recorded Vd of the following molecule: CC1(C)C(=CC=C2CCCC(C=CC3=[N+](CCCCS(=O)(=O)[O-])c4ccc(S(=O)(=O)O)cc4C3(C)C)=C2Oc2ccc(CC(NC(=O)c3ccc(NCc4cnc5nc(N)[nH]c(=O)c5n4)cc3)C(=O)O)cc2)N(CCCCS(=O)(=O)O)c2ccc(S(=O)(=O)O)cc21 (stereo not shown) [pafolacianine]
2.02
